Provide the reported TGI of each item.
# Tested on: UACC-62 melanoma
# ASSAY_NOTES: NCI tumour cell line growth inhibition, 48 h

// batch mode: one TGI value per listed entry
1. CSC(SC)=C(C(=O)c1ccc(Cl)cc1)n1c(=O)sc2cc(Br)ccc21
2. O=S(=O)(Nc1nc2ccccc2nc1N1CCCCCC1)c1ccccc1
3. Cc1c(C)c2c(c(N)c1C#N)C(=O)N(N)C2=O
4. O=C(Nc1n[nH]c2cc(-c3cc(F)ccc3F)ccc12)C1CC1
5. Cc1nc(NC(C)(CO)CO)nc(N/N=C/c2ccc(Cl)cc2)c1C(=O)Nc1ccc(Cl)cc1
6. C=CCC(O[Si](C)(C)C(C)(C)C)c1cc(O[Si](C)(C)C(C)(C)C)ccc1OC (stereo not given)
7. CC(C)(CO[C@H]1C[C@H]2CC[C@@]1(C)C2(C)C)[N+](=O)[O-]

1. > 100 µM
2. 52.9 µM
3. > 100 µM
4. > 25 µM
5. > 100 µM
6. > 100 µM
7. 41.7 µM

// batch mode: one TGI value per listed entry
1. COC(=O)c1sc(=O)sc1SCc1cccc(CSc2sc(=O)sc2C(=O)OC)c1
2. CCCCCCCC/C=C/CCCCCCCC1=NC(C)(C)CN1C(C)(C)CO
3. O=C(O)CSC(CC(=O)c1ccc(Cl)cc1)c1ccc(Cl)cc1 (stereo not given)

1: > 100 µM; 2: 3.47 µM; 3: > 100 µM

----------
# System: MOLT-4 leukemia
# ASSAY_NOTES: NCI tumour cell line growth inhibition, 48 h; in the data active = GI50 below about 0.43 µM; inactive = the rest
Outcomes you can answer with include only these: TRUE for active, FALSE for inactive

Reference set, count: 3
| COMPOUND | CLASS_LABEL |
| --- | --- |
| COC1=CC(c2ccc[nH]2)=N/C1=C\c1[nH]c(C)c(C(=O)CCCCCCCCC(=O)O[C@H]2CC[C@H]3C4CCc5cc(O)ccc5C4CC[C@]23C)c1C (stereo partly specified) | FALSE |
| Nc1cc2c3c(cccc3c1)C(=O)N(CCN1CCCC1)C2=O | FALSE |
| C[C@@]1(F)[C@H](O)[C@@H](CO)O[C@H]1n1ccc(=O)[nH]c1=O | FALSE |

Dear colleague, could you share the recorded outcome for COc1ccc(-n2cc(-c3ccc(OC)c(OC)c3)[nH]c2=O)cc1 when you have a moment?
FALSE

Dear colleague, could you share the recorded outcome for COc1cc2c(/C=C3\C(=O)Nc4ccccc43)c[nH]c2cc1C when you have a moment?
TRUE

Dear colleague, could you share the recorded outcome for O=c1[nH]c(C2CCCN2)nc2c1oc1ccc(Cl)cc12 (stereo unspecified) when you have a moment?
FALSE

Dear colleague, could you share the recorded outcome for COc1cc(/C=N/NC(=O)c2cnn3c2NC(c2ccccc2)C3)ccc1OC1CCCC1 (stereo unspecified) when you have a moment?
FALSE

Dear colleague, could you share the recorded outcome for OCc1ccc(N(Cc2ccc(F)cc2)Cc2ccc(F)cc2)cc1Cl when you have a moment?
FALSE

Dear colleague, could you share the recorded outcome for C/C(=N/NC(=S)Nc1ccccc1)c1nc2ccc(Cl)cc2[nH]1 when you have a moment?
TRUE

Dear colleague, could you share the recorded outcome for CCC[CH2][Sn-]([CH2]CCC)([CH2]CCC)[O]C(=O)C(C)C when you have a moment?
TRUE

Dear colleague, could you share the recorded outcome for CSc1nc(Nc2cccc(NC(=O)CCl)c2)c(C#N)c(-c2cccc([N+](=O)[O-])c2)n1 when you have a moment?
FALSE

Dear colleague, could you share the recorded outcome for O=C(Nc1n[nH]c2cc(-c3cc(F)ccc3F)ccc12)C1CC1 when you have a moment?
FALSE

Dear colleague, could you share the recorded outcome for COc1ccc(-c2ccc(C3CC(c4ccccc4)=NN3)o2)c([N+](=O)[O-])c1 (stereo unspecified) when you have a moment?
FALSE

Dear colleague, could you share the recorded outcome for COc1cc(C2CC(c3ccc(Nc4nc(NCCO)nc(NCCO)n4)cc3)=NN2c2cc(Cl)cc(Cl)c2)cc(OC)c1OC (stereo unspecified) when you have a moment?
FALSE

Dear colleague, could you share the recorded outcome for CCCCCCCC/C=C/CCCCCCCC1=NC(C)(C)CN1C(C)(C)CO when you have a moment?
FALSE

Dear colleague, could you share the recorded outcome for CC(=O)[CH-]C(C)=O.CC(=O)[CH-]C(C)=O.[O-]c1ccccc1.[O-]c1ccccc1.[Ti+4] when you have a moment?
FALSE
